Test target: Mcl-1 protein (UniProtKB Q07820) (Homo sapiens (Human), UniProt Q07820)
Sequence (Q07820 whole entry): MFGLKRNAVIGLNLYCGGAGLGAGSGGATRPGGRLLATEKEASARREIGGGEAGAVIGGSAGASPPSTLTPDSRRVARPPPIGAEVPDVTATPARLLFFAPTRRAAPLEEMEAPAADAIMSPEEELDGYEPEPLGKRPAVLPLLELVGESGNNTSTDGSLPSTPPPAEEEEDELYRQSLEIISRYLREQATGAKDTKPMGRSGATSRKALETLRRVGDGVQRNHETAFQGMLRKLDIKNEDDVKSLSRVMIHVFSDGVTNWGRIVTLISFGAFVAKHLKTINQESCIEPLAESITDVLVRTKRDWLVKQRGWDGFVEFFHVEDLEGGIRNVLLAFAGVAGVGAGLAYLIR
Assay comment: Inhibition of Mcl-1 by the fluorescence polarisation assay (Example A, Method A)
Test context: fluorescence polarization assay
pKi: −log10 of the molar value.
Property name: pKi

Worked set:
[[record]]
compound = "O=C(O)[C@]1(Nc2cccc(Cl)c2)CC[C@]2(C=Cc3ccccc32)CC1"
value_observed = 5.30

[[record]]
compound = "O=C(O)[C@]1(Nc2cccc(Cl)c2)CC[C@]2(CC1)C(Br)=Cc1ccc(F)cc12"
value_observed = 6.58

[[record]]
compound = "COc1ccc2c(c1)[C@]1(CC[C@](Nc3cccc(Br)c3)(C(=O)O)CC1)C(C)(C)C2"
value_observed = 4.34


A: Cc1ccc(C2Cc3ccccc3C23CCC(Nc2cccc(Br)c2)(C(=O)O)CC3)cc1 (stereo not shown)
B: COc1ccc(C2Cc3ccccc3[C@]23CC[C@@](Nc2ccccc2)(C(=O)O)CC3)c(C)c1 (single isomer, unassigned) [Example 257]
C: COc1ccc(Cl)c(C2Cc3ccccc3[C@]23CC[C@@](Nc2cccc(Cl)c2)(C(=O)O)CC3)c1 (single isomer, unassigned) [Example 259]
D: Cc1ccccc1CCOCC1=Cc2ccccc2[C@]12CC[C@@](Nc1cccc(Cl)c1)(C(=O)O)CC2
Task: Order the 4 compounds from highest to lowest pKi. Output spec: a listing of the labels in the requested order.
Result: D, A, C, B
(D: 6.44, A: 5.76, C: 5.00, B: 4.39)

* * *

Test target: Mcl-1 protein (UniProtKB Q07820) (Homo sapiens (Human), UniProt Q07820)
Assay comment: Inhibition of Mcl-1 by the fluorescence polarisation assay (Example A, Method A)
Test context: fluorescence polarization assay
pKi: −log10 of the molar value.
Property name: pKi

Sample records with pKi:
[[record]]
molecule = "O=C(O)[C@]1(Nc2cccc(Cl)c2)CC[C@@]2(CC1)c1ccccc1CC2CCCSc1ccccc1 (stereo partly shown)"
value_observed = 6.22

[[record]]
molecule = "COc1ccc(C2=Cc3ccccc3[C@]23CC[C@@](Nc2cccc(Cl)c2)(C(=O)O)CC3)cc1"
value_observed = 5.97

[[record]]
molecule = "O=C(O)[C@]1(Nc2cccc(Cl)c2)CC[C@@]2(CC1)c1ccccc1CC2c1coc2ccccc12 (single isomer, unassigned) [Example 285]"
value_observed = 5.30

[[record]]
molecule = "O=C(O)[C@]1(Nc2cccc(Cl)c2)CC[C@@]2(CC1)c1ccccc1CC2[C@H]1C[C@@H]1COc1ccccc1 (relative stereo) [Example 109]"
value_observed = 6.13

[[record]]
molecule = "O=C(O)[C@]1(Nc2cccc(Cl)c2)CC[C@]2(CC1)C(Br)=Cc1c(Cl)cccc12"
value_observed = 6.72


A: Cc1cccc(C)c1C1=Cc2ccccc2[C@]12CC[C@@](Nc1cccc(Cl)c1)(C(=O)O)CC2
B: CC1N(C)c2ccccc2[C@]12CC[C@](Nc1cccc(Br)c1)(C(=O)O)CC2 (stereo partly shown)
Task: Pick one, A or B : lowest reported pKi. # reply format: chosen label
Result: A
(A: 4.72, B: 5.97)

* * *

Test target: Mcl-1 protein (UniProtKB Q07820) (Homo sapiens (Human), UniProt Q07820)
Assay comment: Inhibition of Mcl-1 by the fluorescence polarisation assay (Example A, Method A)
Test context: fluorescence polarization assay
Protocol: The relative binding potency of each compound was determined via Fluorescence Polarisation (FP). The method utilised a Fluorescein labelled ligand (Fluorescein-βAla-Ahx-A-REIGAQLRRMADDLNAQY-OH; MW 2,765) which binds to the Mcl-1 protein (such that Mcl-1 corresponds to the UniProtKB® primary accession number: Q07820) leading to an increased anisotropy measured in milli-polarisation (mP) units using a reader. […]
Property name: Ki (nM)

Please review the entries below; each comes with its answer.
[[record]]
compound = "COc1ccc(C2Cc3ccccc3[C@]23CC[C@@](Nc2ccccc2)(C(=O)O)CC3)c(C)c1 (single isomer, unassigned) [Example 256]"
property_name = "Ki"
value_observed = 24200

[[record]]
compound = "CC(=O)c1ccc2c(c1)[C@]1(CC[C@@](Nc3cccc(Cl)c3)(C(=O)O)CC1)C(Br)=C2"
property_name = "Ki"
value_observed = 150

[[record]]
compound = "CNc1cccc(OC[C@H](C)C[C@H]2Cc3ccccc3[C@]23CC[C@@](Nc2cccc(Cl)c2)(C(=O)O)CC3)c1"
property_name = "Ki"
value_observed = 74.3

[[record]]
compound = "O=C(O)[C@]1(Nc2cccc(Cl)c2)CC[C@]2(CC1)C(I)=Cc1ccccc12"
property_name = "Ki"
value_observed = 284

[[record]]
compound = "O=C(O)[C@]1(Nc2cccc(Cl)c2)CC[C@]2(CC1)C(c1ccc(-c3ccccc3)o1)=Cc1ccccc12"
property_name = "Ki"
value_observed = 942


I: O=C(O)[C@]1(Nc2cccc(Cl)c2)CC[C@]2(CC1)C(c1cc3c(-c4ccncc4)cccc3o1)=Cc1ccccc12
II: CC1=C(C)[C@]2(CC[C@@](Nc3cccc(Br)c3)(C(=O)O)CC2)c2ccccc21
Task: Please let me know which one, I or II , has a lower measured Ki value. Reply with the label of the item you choose.
Result: I
(I: 14800 nM, II: 40100 nM)

* * *

Test target: Mcl-1 protein (UniProtKB Q07820) (Homo sapiens (Human), UniProt Q07820)
Assay comment: Inhibition of Mcl-1 by the fluorescence polarisation assay (Example A, Method A)
Test context: fluorescence polarization assay
Property name: Ki (µM)

Example results:
[[record]]
molecule = "O=C(O)[C@]1(Nc2cccc(Cl)c2)CC[C@@]2(CC1)c1ccccc1C[C@H]2c1cc2ccccc2o1 [Example 337]"
test_target = "Mcl-1 protein (UniProtKB Q07820) (Homo sapiens (Human), UniProt Q07820)"
property_name = "Ki"
value_observed = 0.247

[[record]]
molecule = "COc1ccc2c(c1)[C@]1(CC[C@@](Nc3cccc(Cl)c3)(C(=O)O)CC1)C(c1cccc(C)c1)=C2 [Example 366]"
test_target = "Mcl-1 protein (UniProtKB Q07820) (Homo sapiens (Human), UniProt Q07820)"
property_name = "Ki"
value_observed = 1.39

[[record]]
molecule = "O=C(O)[C@]1(Nc2cccc(Cl)c2)CC[C@]2(CC1)C(c1cccc(OCc3cccnc3)c1)=Cc1ccccc12 [Example 363]"
test_target = "Mcl-1 protein (UniProtKB Q07820) (Homo sapiens (Human), UniProt Q07820)"
property_name = "Ki"
value_observed = 0.227

[[record]]
molecule = "Cc1ccc(C2Cc3ccccc3[C@]23CC[C@@](Nc2cccc(Cl)c2)(C(=O)O)CC3)cc1 (single isomer, unassigned) [Example 306]"
test_target = "Mcl-1 protein (UniProtKB Q07820) (Homo sapiens (Human), UniProt Q07820)"
property_name = "Ki"
value_observed = 0.663

[[record]]
molecule = "CC(C)C(COc1ccncc1)CC1Cc2ccccc2[C@]12CC[C@@](Nc1cccc(Cl)c1)(C(=O)O)CC2 (single isomer, unassigned) [Example 535]"
test_target = "Mcl-1 protein (UniProtKB Q07820) (Homo sapiens (Human), UniProt Q07820)"
property_name = "Ki"
value_observed = 2.28


A: Cc1cc(C)cc(C2=Cc3ccccc3C23CCC(Nc2cccc(Br)c2)(C(=O)O)CC3)c1 (single isomer, unassigned) [Example 238]
B: O=C(O)[C@]1(Nc2cccc(Cl)c2)CC[C@]2(CC1)C(c1ccc(Cl)cc1)=Cc1ccccc12 [Example 298]
Task: Choose between A and B : whose measured Ki value is numerically larger? Return value: the label identifying the chosen record.
Result: A

* * *

Test target: Cy5-labelled Mcl1 (amino acids 171-321) C286S protein (UniProtKB Q07820) (Homo sapiens (Human), UniProt Q07820, C286S)
Sequence (Q07820 171-321 C286S): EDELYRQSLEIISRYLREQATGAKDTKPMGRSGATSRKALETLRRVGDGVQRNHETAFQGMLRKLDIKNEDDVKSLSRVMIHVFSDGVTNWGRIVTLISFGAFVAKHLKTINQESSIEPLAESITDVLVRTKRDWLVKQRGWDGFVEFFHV
Assay comment: Inhibition of Mcl-1 by the fluorescence quenching assay (Example A, Method B)
Type: binding
From the text: Fluorescence quenching assay measures the change fluorescence intensity of C-terminally Cy5-labelled Mcl1 (amino acids 171-321) C286S protein (UniProtKB® primary accession number Q07820) having an amino acid sequence: […] The addition of a compound which binds competitively to the same site as the peptide will result in an increase in the fluorescence intensity of the protein due to displacement of the fluorescence quencher. […]
pKi: −log10 of the molar value.
Property name: pKi

Some molecules with known pKi results, for comparison:
[[record]]
molecule = "C[C@@H](COc1ccnc2c1[C@H](C)CCC2)C[C@H]1Cc2cccc(F)c2[C@]12CC[C@@](Nc1cccc(Cl)c1)(C(=O)O)CC2"
property_name = "pKi"
value_observed = 10.09

[[record]]
molecule = "Cc1cc(C(C)O)cc2c1CC(C[C@@H](C)COc1ccnc3c1[C@H](C)CCC3)[C@]21CC[C@](Nc2cccc(Cl)c2)(C(=O)O)CC1 (some centres unmarked)"
property_name = "pKi"
value_observed = 7.19

[[record]]
molecule = "O=C(O)[C@]1(Nc2cccc(Cl)c2)CC[C@@]2(CC1)c1ccccc1CC2CC(COc1ccnc2c1CCCC2)C(F)F (single isomer, unassigned) [Example 512]"
property_name = "pKi"
value_observed = 7.64

[[record]]
molecule = "[2H]c1c([2H])c(Cl)c([2H])c(N[C@]2(C(=O)O)CC[C@]3(CC2)c2cc4c(cc2C[C@@H]3C[C@@H](C)COc2ccnc3c2[C@H](C)CCC3)OCO4)c1[2H]"
property_name = "pKi"
value_observed = 10.97


A: C[C@@H](COc1ccnc2c1[C@H](C)CC[C@H]2O)CC1=Cc2cc(F)ccc2[C@]12CC[C@@](Nc1cccc(Cl)c1)(C(=O)O)CC2
B: C[C@@H](COc1ccnc2c1[C@H](C)CCC2(F)F)C[C@H]1Cc2ccccc2[C@]12CC[C@@](Nc1cccc(Cl)c1)(C(=O)O)CC2
Task: Smaller pKi value, A vs B ? Use the label to indicate which entry you chose.
Result: B
